Numbers sourced from paper PMC8573386.

target: T1, EGFR on EGFR-overexpressing tumor cell line A431 (Homo sapiens, A431 cells, UniProt P00533); test: flow cytometry on cells; EGFR-positive A431 cells incubated 1 h on ice with antibody derivatives 0.05 nM to 1 µM, detected with Alexa Fluor 488 Fab goat antihuman IgG (H+L); apparent binding affinities; settings: one partner purified
T1 construct: epidermal growth factor receptor on the surface of A431 cells; also used as the target of the functional rows on A549 cells; also called EGFR-positive A431 cells; source: endogenous, on A431 cells
Assign pEC50 to each entry below.
Give bare numbers, as −log10 of the molar value.

Return reported pEC50. Input binder: 60H05 IgG (antibody, synthetic bovine IGHV1-7 (VHBUL) scaffold, FR1 to FR3; ultralong CDR-H3 (stalk and knob) of clone 60H05 from immunised cattle; FR4 of the synthetic VH domain; human IgG1 heavy chain constant regions; as the light chain of m3: bovine VL (V30, VLλ30) deduced from PDB entries that share a CDR-identical light chain; human constant lambda region (CLλ); chimeric IgG1; also called chimeric bovine × …) VH: QVQLRESGPSLVKPSQTLSLTCTASGFSLSDKAVGWVRQAPGKALEWLGGIDTGGSTGYNPGLKSRLSITKDNSKSQVSLSVSSVTTEDSATYYCTTVHQKTNKLKSCPDGYTSGVECRFRGYTCANDGCWRVCSFTTCSGWMPASDTYRYEYHVDAWGQGLLVTVSS VL: EAVLNQPSSVSGSLGQRVSITCSGSSSNVGNGYVSWYQLIPGSAPRTLIYGDTSRASGVPDRFSGSRSGNTATLTISSLQAEDEADYFCASAEDSSSNAVFGSGTTLTVL 8.59

Return reported pEC50. Input binder: 60C08 IgG (antibody, synthetic bovine IGHV1-7 (VHBUL) scaffold, FR1 to FR3; ultralong CDR-H3 (stalk and knob) of clone 60C08 from immunised cattle; FR4 of the synthetic VH domain; human IgG1 heavy chain constant regions; as the light chain of m3: bovine VL (V30, VLλ30) deduced from PDB entries that share a CDR-identical light chain; human constant lambda region (CLλ); chimeric IgG1; also called chimeric bovine × …) VH: QVQLRESGPSLVKPSQTLSLTCTASGFSLSDKAVGWVRQAPGKALEWLGGIDTGGSTGYNPGLKSRLSITKDNSKSQVSLSVSSVTTEDSATYYCTTVHQKTIETTQKTCPDGYFYADTCWAYSCRCRDCDCCRSSGGCTYSRDSHTATYEWHVDAWGQGLLVTVSS VL: EAVLNQPSSVSGSLGQRVSITCSGSSSNVGNGYVSWYQLIPGSAPRTLIYGDTSRASGVPDRFSGSRSGNTATLTISSLQAEDEADYFCASAEDSSSNAVFGSGTTLTVL 9.05

Return reported pEC50. Input binder: 60F06 IgG (antibody, synthetic bovine IGHV1-7 (VHBUL) scaffold, FR1 to FR3; ultralong CDR-H3 (stalk and knob) of clone 60F06 from immunised cattle; FR4 of the synthetic VH domain; human IgG1 heavy chain constant regions; as the light chain of m3: bovine VL (V30, VLλ30) deduced from PDB entries that share a CDR-identical light chain; human constant lambda region (CLλ); chimeric IgG1; also called chimeric bovine × …) VH: QVQLRESGPSLVKPSQTLSLTCTASGFSLSDKAVGWVRQAPGKALEWLGGIDTGGSTGYNPGLKSRLSITKDNSKSQVSLSVSSVTTEDSATYYCTTVHQRTEKIAKCPDGYSDARHCRDGCDCFGWDCFRSGAWAECYYEVYTYVHTYEHHVDAWGQGLLVTVSS VL: EAVLNQPSSVSGSLGQRVSITCSGSSSNVGNGYVSWYQLIPGSAPRTLIYGDTSRASGVPDRFSGSRSGNTATLTISSLQAEDEADYFCASAEDSSSNAVFGSGTTLTVL 8.52

Each binder below has a reported value. Please supply its pEC50.
1. 60E11 IgG (antibody, synthetic bovine IGHV1-7 (VHBUL) scaffold, FR1 to FR3; ultralong CDR-H3 (stalk and knob) of clone 60E11 from immunised cattle; FR4 of the synthetic VH domain; human IgG1 heavy chain constant regions; as the light chain of m3: bovine VL (V30, VLλ30) deduced from PDB entries that share a CDR-identical light chain; human constant lambda region (CLλ); chimeric IgG1; also called chimeric bovine × …) VH: QVQLRESGPSLVKPSQTLSLTCTASGFSLSDKAVGWVRQAPGKALEWLGGIDTGGSTGYNPGLKSRLSITKDNSKSQVSLSVSSVTTEDSATYYCTTVHQRTRKTCPDGWRDGSDCPYGHRCGDYDCCGYGCYDGRGTNRFTGVVESYTYEWYVDAWGQGLLVTVSS VL: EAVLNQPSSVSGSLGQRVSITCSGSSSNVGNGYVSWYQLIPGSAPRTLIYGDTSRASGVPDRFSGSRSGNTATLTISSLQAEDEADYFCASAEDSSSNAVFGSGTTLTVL
2. 60C03 IgG (antibody, synthetic bovine IGHV1-7 (VHBUL) scaffold, FR1 to FR3; ultralong CDR-H3 (stalk and knob) of clone 60C03 from immunised cattle; FR4 of the synthetic VH domain; human IgG1 heavy chain constant regions; bovine VL (V30, VLλ30) deduced from PDB entries that share a CDR-identical light chain; human constant lambda region (CLλ); chimeric IgG1; all clones share one fixed light chain and VH scaffold and …) VH: QVQLRESGPSLVKPSQTLSLTCTASGFSLSDKAVGWVRQAPGKALEWLGGIDTGGSTGYNPGLKSRLSITKDNSKSQVSLSVSSVTTEDSATYYCTTVHQETKKENSCPDGYTSGVECRFRGYTCANDGCWRVCSFTTCSGWMPASDTYRYEYHVDAWGQGLLVTVSS VL: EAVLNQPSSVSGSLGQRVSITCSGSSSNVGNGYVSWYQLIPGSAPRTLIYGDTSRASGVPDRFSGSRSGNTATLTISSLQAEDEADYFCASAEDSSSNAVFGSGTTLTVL
3. 60D01 IgG (antibody, synthetic bovine IGHV1-7 (VHBUL) scaffold, FR1 to FR3; ultralong CDR-H3 (stalk and knob) of clone 60D01 from immunised cattle; FR4 of the synthetic VH domain; human IgG1 heavy chain constant regions; as the light chain of m3: bovine VL (V30, VLλ30) deduced from PDB entries that share a CDR-identical light chain; human constant lambda region (CLλ); chimeric IgG1; also called chimeric bovine × …) VH: QVQLRESGPSLVKPSQTLSLTCTASGFSLSDKAVGWVRQAPGKALEWLGGIDTGGSTGYNPGLKSRLSITKDNSKSQVSLSVSSVTTEDSATYYCTTVHQETTKTASCPDGYAEHFGRGWGYWGCGGCDCCQENGAGGGWGNCGLYSTSYTYEHHIDAWGQGLLVTVSS VL: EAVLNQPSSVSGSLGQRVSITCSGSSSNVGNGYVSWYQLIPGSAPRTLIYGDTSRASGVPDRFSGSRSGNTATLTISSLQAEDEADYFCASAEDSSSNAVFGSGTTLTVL

1: 8.00; 2: 8.52; 3: 8.89
